Measured values drawn from paper PMC6792352 for this set.

test: in vitro; settings: rat, gh3-tre-luc cells, AC50 (uM) modified / 1000
Where a name gives a salt, the structure may show the parent alone. Residues, ends and D or L forms follow the SMILES beside them.
Can you tell me CC50 at 24 h for the items I'm about to list?

Some solved cases for reference:
- molecule: "O=C(Nc1ccc2c(c1)Cc1ccccc1-2)C(F)(F)F [N-(2-Fluorenyl)-2,2,2-trifluoroacetamide]"
  assay-endpoint: "CC50 at 24 h"
  test-result: "> 90 µM"
- molecule: "COC(=O)[C@H](Cc1ccccc1)NC(=O)[C@@H](N)CC(=O)O [Aspartame] (H-Asp-Phe-OMe)"
  assay-endpoint: "CC50 at 24 h"
  test-result: "> 90 µM"
- molecule: "CCCCCCOC(=O)CC [Hexyl propanoate]"
  assay-endpoint: "CC50 at 24 h"
  test-result: "> 90 µM"

Could you report CC50 at 24 h for every entry in the following list?
1. CCCCC/C(=C\c1ccccc1)CO
2. COS(=O)(=O)O [Sodium methyl sulfate]

1: 46.6 µM; 2: > 90 µM

----------
assay: in vitro; details: rat, gh3-tre-luc cells, AC50 (uM) modified / 1000, Tox21_110001=Tox21_202245; viability, 1 nM T3 present, 24 h
assay-endpoint: CC50 at 24 h

Entry OCCCCO : reported CC50 at 24 h = ?
> 90 µM

----------
assay: in vitro; details: rat, gh3-tre-luc cells, AC50 (uM) modified / 1000
Structures can show the parent of a compound that is named as a salt.
assay-endpoint: CC50 at 24 h

Some solved cases for reference:
- compound: "O=C1CN(/N=C/c2ccc([N+](=O)[O-])o2)C(=O)N1"
  test-result: "62.5 µM"
- compound: "CC(=O)C=Cc1ccco1"
  test-result: "> 100 µM"
- compound: "CC(Oc1ccccc1)C(=O)N[C@@H]1C(=O)N2[C@@H]1SC(C)(C)[C@@H]2C(=O)O (stereo partly shown)"
  test-result: "> 20 µM"
- compound: "ClC(Cl)=C(Cl)C(Cl)=C(Cl)Cl"
  test-result: "> 90 µM"
- compound: "CC1=C(/C=C/C(C)=C/C=C/C(C)=C/C=C/C=C(C)/C=C/C=C(C)/C=C/C2=C(C)C[C@@H](O)CC2(C)C)C(C)(C)C[C@H](O)C1"
  test-result: "28.9 µM"

Could you report CC50 at 24 h for every entry in the following list?
1. CC(=O)S[C@H](C(=O)N[C@H]1Cc2ccccc2[C@H]2CCC[C@@H](C(=O)O)N2C1=O)C(C)C
2. NCC[C@H](O)C(=O)N[C@@H]1C[C@H](N)[C@@H](O[C@H]2O[C@H](CN)CC[C@H]2N)[C@H](O)[C@H]1O[C@H]1O[C@H](CO)[C@@H](O)[C@H](N)[C@H]1O [Arbekacin sulfate]
3. CCOC(=O)COC(=O)c1cc(Oc2ccc(C(F)(F)F)cc2Cl)ccc1[N+](=O)[O-]
4. COc1ccc(COC=O)cc1 [4-Methoxybenzyl formate]

["> 90 µM", "> 50 µM", "> 90 µM", "> 90 µM"]

----------
assay: in vitro; conditions: rat, gh3-tre-luc cells, AC50 (uM) modified / 1000, Tox21_110001=Tox21_201841; viability, 1 nM T3 present, 24 h
assay-endpoint: CC50 at 24 h

Entry CCOP(=S)(OCC)Oc1ccc2c(C)c(Cl)c(=O)oc2c1 : reported CC50 at 24 h = ?
> 90 µM
